- experimentalTarget: T1, recombinant human midkine (huMK) (human, UniProt P21741 21-143)
- T1 construct: also called human MK; Human MK
- T1 sequence (looked up): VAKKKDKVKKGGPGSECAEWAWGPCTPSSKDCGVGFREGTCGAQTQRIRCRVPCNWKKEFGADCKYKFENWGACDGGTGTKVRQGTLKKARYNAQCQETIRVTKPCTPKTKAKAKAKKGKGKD
- testDescription: ELISA, plate coated with huMK
attributeMeasured: pEC50
For clarity, pEC50 is expressed as the negative log10 of concentration in mol/L.

Study these solved cases before continuing.
* IP14 Hv0 Lv3 (antibody, V domains shown) VH: QVQLQQPGAELVRPGHSVKLSCKASGQSFSSYWMNWVRQRPGQGLEWIGMIHPSDSETILNQKFKDKATLTVDISSNTAYMQLSSPTSEDSAVYFCSSWSAKRGDFWGQGTTLTVSS VL: DIVLTQSPATLSLSPGERATLSCRASESISNNLHWYQQKPGQAPRLLIYYASQSISGIPARFSGSGPGTDFTLTISSLEPEDFAVYYCQQSNSWPLTFGGGTKLEIKR | 10.05
* IP14-H5L1 (antibody, V domains shown, also called Hv5 Lv1) VH: QVQLVQSGGGLVQPGGSLRLSCAASGQSFSSYWMNWVRQAPGQGLEWIGMIHPSDSETILNQKFKDKATLTVDISKNTAYLQMNSLRAEDTAVYYCSSWSAKRGDFWGQGTLVTVSS VL: EIVLTQSPATLSLSPGERANLSCRASESISNNLHWYQQKPHQAPRLLIKYASQSISGIPARFSGSGPGTDFNLTISSVEPEDFAVYYCQQSNSWPLTFGGGTKLEIKR | 10.21

Ask | Name the reported pEC50 value associated with the binder IP14 Hv0 Lv2 (antibody, V domains shown) VH: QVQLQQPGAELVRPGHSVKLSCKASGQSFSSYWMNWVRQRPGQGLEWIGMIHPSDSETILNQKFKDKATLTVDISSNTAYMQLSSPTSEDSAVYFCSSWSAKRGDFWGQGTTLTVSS VL: EIVLTQSPATLSLSPGERATLSCRASESISNNLHWYQQKPGQAPRLLIKYASQSISGIPARFSGSGPGTDFTLTISSVEPEDFAVYYCQQSNSWPLTFGGGTKLEIKR
Reply | 10.02
